Reported Ratio EC50 by item:
- Test system: Plasmodium falciparum
- assayProtocol: Resistance index, ratio of EC50 for erythrocytic stage of Plasmodium falciparum Dd2 harboring 20S beta5 proteasome A49S mutant to EC50 erythrocytic stage of Plasmodium falciparum Dd2
- Type: functional
// return just the number, without any unit appended

### Prompt Identify the reported Ratio EC50 for the following entry. Cc1ccc(S(=O)(=O)N[C@@H](CC(=O)NC(C)(C)C)C(=O)NCCNC(=O)c2ccccc2)cc1
### Response 17

### Prompt Fill in reported Ratio EC50 for this entry: CC(C)C[C@H](NC(=O)[C@H](Cc1ccccc1)NC(=O)c1cnccn1)B(O)O
### Response 2.4

### Prompt Entry COc1cccc(C(=O)NCCNC(=O)[C@H](CC(=O)NC(C)(C)C)NS(=O)(=O)c2ccc(C)cc2)c1 needs its Ratio EC50 filled in; supply it.
### Response 101

Continuing:
### Prompt Name the recorded Ratio EC50 of the item CC(C)(C)NC(=O)C[C@H](NC(=O)CCc1ccccc1)C(=O)NCCNC(=O)c1cccc(-c2ccccc2)c1 in your answer.
### Response 541

### Prompt Entry CC(C)C[C@@H](/C=C/S(C)(=O)=O)NC(=O)[C@H](CC(C)C)NC(=O)[C@H](Cc1c[nH]c2ccccc12)NC(=O)CN1CCOCC1 needs its Ratio EC50 filled in; supply it.
### Response 0.28

### Prompt Supply Ratio EC50 value. Item: C#Cc1cccc(C(=O)NCCNC(=O)[C@H](CC(=O)NC(C)(C)C)NS(=O)(=O)c2ccc(C)cc2)c1
### Response 152

###

- Test system: beta5 subunit of human 20S constitutive proteasome
- assayProtocol: Selectivity ratio of IC50 for human beta5 20S constitutive proteasome to IC50 for Plasmodium falciparum 20S proteasome beta5 subunit
- Assay type: toxicity
- setupConditions: read-out: Ratio IC50
Use 70 as the dividing line for selectivity ratio, with the line itself on the True side and lower values as False.

### Prompt State whether the measured selectivity ratio reaches 70, counting equality as reaching it, for Cc1ccc(S(=O)(=O)N[C@@H](CC(=O)NC(C)(C)C)C(=O)NCCNC(=O)c2cccc(F)c2)cc1
### Response True

### Prompt State whether the measured selectivity ratio reaches 70, counting equality as reaching it, for Cc1ccc(S(=O)(=O)N[C@@H](CC(=O)NC(C)(C)C)C(=O)NCCNC(=O)c2cccc(O)c2)cc1
### Response True

### Prompt State whether the measured selectivity ratio reaches 70, counting equality as reaching it, for C#Cc1cccc(C(=O)NCCNC(=O)[C@H](CC(=O)NC(C)(C)C)NS(=O)(=O)c2ccc(C)cc2)c1
### Response True

### Prompt Please indicate if the recorded selectivity ratio for Cc1ccc(S(=O)(=O)N[C@@H](CC(=O)NC(C)(C)C)C(=O)NCCNC(=O)c2cc(Cl)ccn2)cc1 meets or exceeds 70.
### Response True

New cases:
### Prompt In plain terms: is recorded selectivity ratio at least 70 for Cc1ccc(S(=O)(=O)N[C@@H](CC(=O)NC(C)(C)C)C(=O)NCCNC(=O)c2ccc(F)c(F)c2)cc1 ?
### Response False

### Prompt Say whether Cc1ccc(S(=O)(=O)N[C@@H](CC(=O)NC(C)(C)C)C(=O)NCCNC(=O)c2ccccn2)cc1 shows selectivity ratio of 70 or more.
### Response False

### Prompt State whether the measured selectivity ratio reaches 70, counting equality as reaching it, for Cc1ccc(S(=O)(=O)N[C@@H](CC(=O)NC(C)(C)C)C(=O)NCCNC(=O)c2cccc(C(C)C)c2)cc1
### Response True

### Prompt Hi team, for Cc1ccc(S(=O)(=O)N[C@@H](CC(=O)NC(C)(C)C)C(=O)NCCNC(=O)c2ccccc2Cl)cc1 , is the recorded selectivity ratio at or above 70?
### Response True

### Prompt Assess whether reported selectivity ratio for Cc1ccc(S(=O)(=O)N[C@@H](CC(=O)NC(C)(C)C)C(=O)NCCNC(=O)c2ccc(Cl)cc2)cc1 sits at 70 or higher.
### Response False

### Prompt Does selectivity ratio meet or surpass 70 for Cc1ccc(S(=O)(=O)N[C@@H](CC(=O)NC(C)(C)C)C(=O)NCCNC(=O)c2ccccc2O)cc1 ?
### Response False

### Prompt Does the compound Cc1ccc(S(=O)(=O)N[C@@H](CC(=O)NC(C)(C)C)C(=O)NCCNC(=O)c2cc(C)ccn2)cc1 have recorded selectivity ratio that is 70 or more?
### Response True

### Prompt Test whether the compound Cc1ccc(S(=O)(=O)N[C@@H](CC(=O)NC(C)(C)C)C(=O)NCCNC(=O)c2cccc(C#N)c2)cc1 records selectivity ratio of 70 or higher.
### Response True

### Prompt Does selectivity ratio meet or surpass 70 for Cc1ccc(S(=O)(=O)N[C@@H](CC(=O)NC(C)(C)C)C(=O)NCCNC(=O)NCc2ccccc2)cc1 ?
### Response False
